Reference for the values: ChEMBL document CHEMBL3507680

assay.overview: Human HepG2 cell viability assay in 384 well format
Format: toxicity, cell-based
Parameters: dose 125 nL, time 70.5 hour; concentration not given beside the values
measurement.context: HepG2 cells, read-out: Inhibition
cytotoxicity at 70.5 h values by entry
Give your result in % as a bare value.

Solved entries:
>>> print(df.to_string())
                                   compound       observed_property  unit_tag  numeric_value
0  COc1ccc2nc(C)c(C(=O)NCCN3CCS(=O)(=O)CC3)cc2c1  cytotoxicity at 70.5 h         %          -1.47
1  CNS(=O)(=O)c1ccc(CN2CCC(c3ccncc3)CC2)cc1  cytotoxicity at 70.5 h         %          -14.4
2  Cc1nc(CO[C@H]2CN(C(=O)c3cccnc3)[C@@H]3COC[C@H]23)cs1  cytotoxicity at 70.5 h         %          -6.99
3        O=C(NCCCn1cccn1)C1(c2ccccc2)CCOCC1  cytotoxicity at 70.5 h         %          -10.8
4  O=C(NCC1CCOC1)c1cc(-c2cccc(Cl)c2)[nH]n1 (centres undefined)  cytotoxicity at 70.5 h         %            -17
5       CSc1ccc(CN(CCO)C(=O)CCOc2ccccc2)cc1  cytotoxicity at 70.5 h         %          -7.56
6           O=C(NCCn1ccc(-c2ccccn2)n1)C1CC1  cytotoxicity at 70.5 h         %          -4.52
7      O=C(Cn1cccnc1=O)NCc1cccnc1OCC(F)(F)F  cytotoxicity at 70.5 h         %            2.5
8  Cc1cc2n(n1)[C@@H](C(F)(F)F)C[C@@H](C1CCCN(C(=O)C(C)C)C1)N2 (some centres undefined)  cytotoxicity at 70.5 h         %          -3.95
9  CCn1ccnc1CN1CCN(Cc2cccnc2)CC1C (centres undefined)  cytotoxicity at 70.5 h         %           7.86

Request: Item `COc1c(C)cnc(CN2CCn3c(C)nnc3C2)c1C` : provide cytotoxicity at 70.5 h
Result: -3.41

Request: Consider the compound CC(C)Oc1cccc(C(=O)C2CCCN(C(=O)c3cncs3)C2)c1 (centres undefined) and give its recorded cytotoxicity at 70.5 h.
Result: -10.7

Request: Give me measured cytotoxicity at 70.5 h, please, for this compound: COc1cccc(C(=O)N2CCCC(C(=O)CCc3ccccc3)C2)c1 (centres undefined)
Result: -0.206

Request: Recall and state the measured cytotoxicity at 70.5 h for `CN(C)c1ncnc2c1CCN(S(=O)(=O)c1cccc3nsnc13)C2` .
Result: -5.63

Request: Output cytotoxicity at 70.5 h of `CC(C)CN1CCc2[nH]cnc2C12CCN(C(=O)c1ccnn1C)CC2`
Result: -2.45

Request: Give recorded cytotoxicity at 70.5 h. `OCCOc1nc(-c2ccccc2Cl)no1`
Result: -1.34

Request: Determine from records and report cytotoxicity at 70.5 h for O=C(COCCc1ccccc1)N1CCCC(n2cccn2)C1 (centres undefined)
Result: -6.79

Request: Tell us which cytotoxicity at 70.5 h value is on record for `Nc1nccc(N[C@H]2CN(CC(=O)NC3CCCCC3)C[C@@H]2C2CC2)n1`
Result: 5.92

Request: Using known records, supply cytotoxicity at 70.5 h for CCN(CC)C(CNCc1ccc(C)o1)c1ccco1 (centres undefined)
Result: -11.7

Request: Dear colleague, please send me the reported cytotoxicity at 70.5 h for `CNc1cc(C(=O)NCCC2=CSC3=NCCCN23)ccn1` when you can.
Result: 1.26

Request: In one line, give reported cytotoxicity at 70.5 h of the entry CCS(=O)(=O)N1Cc2ncn(CC3CC3)c2C(COCC2CC2)C1 (centres undefined) .
Result: 1.64

Request: Provide measured cytotoxicity at 70.5 h value, entry: `Cc1csc(CCNC(=O)N2CCC(NC(=O)OC(C)(C)C)CC2)n1`
Result: -11.5

Request: Give cytotoxicity at 70.5 h for CCOC(=O)N1CCC(OC)c2ccccc2N(C)C(=O)C1 (centres undefined)
Result: 1.4

Request: Return the recorded cytotoxicity at 70.5 h value; entry: Cc1cc(CN(Cc2cccnc2)CC2CCCO2)on1 (centres undefined)
Result: -1.62

====

assay.overview: Human HepG2 cell viability assay in 384 well format
Format: toxicity, cell-based
Design: dose 125 nL, time 70.5 hour; concentration not given beside the values
measurement.context: HepG2 cells, read-out: Inhibition
Quick list: cytotoxicity at 70.5 h per entry.
State just the number; it will be interpreted in %.

# example entries with known answers
>>> print(df.to_string())
                                   molecule       observed_property  numeric_value
0        CCCC(=O)NCC(=O)Nc1cc(F)ccc1SCC(F)F  cytotoxicity at 70.5 h           2.19
1  OCC1(CC2CC2)CCCN(Cc2ccc(C(F)(F)F)nc2)C1 (stereo unspecified)  cytotoxicity at 70.5 h          -6.45
2      COc1cc(-c2cnnc(NCC3CC3)n2)cc(OC)c1OC  cytotoxicity at 70.5 h           5.52

Request: Quick one: give measured cytotoxicity at 70.5 h for Cc1cnc(CN2CCCC(c3cc(C(N)=O)[nH]n3)C2)o1 (stereo unspecified)
Result: 9.27

Request: Quickly give me recorded cytotoxicity at 70.5 h for `Cc1cc(CN2CCN(C(=O)NCc3csc(C)n3)CC2)on1`
Result: -13

Request: Give cytotoxicity at 70.5 h for the following molecule: `COc1ccc2[nH]nc(CN3CCC(C(=O)N4CCCCC4)CC3)c2c1`
Result: -1.62

====

assay.overview: Human HepG2 cell viability assay in 384 well format
Assay type: toxicity, cell-based
Set-up: dose 125 nL, time 70.5 hour; concentration not given beside the values
measurement.context: HepG2 cells, read-out: Inhibition
Entries and their measured cytotoxicity at 70.5 h follow.
Enter your answer as a number in %; do not include the unit.

Some solved cases for reference:
>>> df
                                   molecule  unit_tag  numeric_value
0       Cc1ncsc1C(=O)NCc1ccnc(OCC(F)(F)F)c1         %          -11.3
1     CCN(C(=O)CNc1cc(C)c(F)cc1C(N)=O)C1CC1         %          0.591
2  O=C(Nc1nc[nH]n1)c1cc(-c2ccc(F)cc2)n[nH]1         %          -14.4

Request: Indicate the recorded cytotoxicity at 70.5 h value for this molecule: `O=C(Cc1ccc2c(c1)OCCO2)NCc1ccc(-n2cncn2)nc1`
Result: -2.42

Request: Using the record for `O=C(Nc1cccc(F)c1)N1CCC(CO)(Nc2ccccc2)CC1` , state its measured cytotoxicity at 70.5 h.
Result: -5.91

Request: Look up and state reported cytotoxicity at 70.5 h for `CC(C)N(C)Cc1cc(=O)n2c(n1)CN(C(=O)c1cnccn1)CCC2`
Result: 4.66

Request: Return reported cytotoxicity at 70.5 h. Input molecule: O=C(c1ccccc1F)N1CCC2(CC1)CC(Oc1ccccn1)CO2 (configuration not stated)
Result: -4.93

Request: Supply reported cytotoxicity at 70.5 h belonging to this molecule: Clc1ccc(-c2ccc(C3CNCCO3)nc2)cc1 (configuration not stated)
Result: -0.52

Request: Identify measured cytotoxicity at 70.5 h associated with `CCOc1cccc(CCNC(=O)Cc2ccn[nH]2)n1`
Result: -7.14

Request: Answer with reported cytotoxicity at 70.5 h of `CN1CCCN(C(=O)NCCNc2ncccn2)CC1`
Result: 17.7

Request: Indicate its recorded cytotoxicity at 70.5 h; the molecule in question is Cc1noc(C)c1CNCC1CNc2ccnn2C1 (configuration not stated)
Result: -7.43

Request: Item `C=C(C)CN(CC)C(=O)Nc1ccccc1CN(C)C(C)=O` : provide cytotoxicity at 70.5 h
Result: -12.6

====

assay.overview: Human HepG2 cell viability assay in 384 well format
Type: toxicity, cell-based
Parameters: dose 125 nL, time 70.5 hour; concentration not given beside the values
measurement.context: HepG2 cells, read-out: Inhibition
observed.property: cytotoxicity at 70.5 h (%)
Dear colleague, please return just the value in %, with no unit written.

Recorded results for 10 molecules are shown here.
In [3]: df
Out[3]:
                                   molecule  numeric_value
0  CNc1ncc(CN(C)C(=O)c2c[nH]nc2-c2cccc(F)c2)cn1           -6.7
1  Cc1nc(C)c(CC(=O)N2C[C@@H](C(=O)O)[C@H](c3ccccc3C)C2)s1            -17
2  Cc1nc(C(C)C)ncc1C(=O)N1CCc2c(nc(N(C)C)[nH]c2=O)C1          -4.39
3            CCc1noc(-c2ccc(SCC(=O)O)nc2)n1           13.8
4   O=C(Cc1csc(-c2ccccn2)n1)NCCCN1CCCCCC1=O          -76.6
5  CN(Cc1ccco1)C(=O)CN1CCCC1Cn1cncn1 (configuration not stated)           3.18
6  Cc1c(C(=O)N2CCS(=O)(=O)CC2)nnn1-c1ccc2ncccc2c1           -4.2
7  CCc1nc(CN(C)CC2CCN(CC(C)O)CC2)no1 (configuration not stated)          -4.55
8    COc1ccc(CN2CCCC2)cc1Oc1ccc(NC(C)=O)cc1          -3.35
9      CC(C)CC(=O)Nc1ccc(Oc2ccsc2C(=O)O)cc1           1.56

Request: Supply recorded cytotoxicity at 70.5 h for `CN(CCO)C(=O)c1coc(CN2CCN(c3ccccc3F)CC2)n1` here.
Result: -7.76

Request: Please supply the value of reported cytotoxicity at 70.5 h for the item CN(C)C(=O)C1CCC2(CCN(Cc3ccc4ccccc4n3)CC2)O1 (configuration not stated)
Result: -8.67

Request: Check the records and state cytotoxicity at 70.5 h for Cc1cnn(C2CCCN(C(=O)c3cc(Cl)c4c(c3)OCO4)C2)c1 (configuration not stated)
Result: 7.73

Request: Identify cytotoxicity at 70.5 h associated with the molecule `Cn1ccc(C(=O)NCCOc2ccc3c(c2)CCC3)cc1=O`
Result: -3.77

Request: Please give the documented cytotoxicity at 70.5 h of `O=C(Cc1ccccc1)N1CC[C@H]2[C@@H]1CCC(=O)N2Cc1ccncc1`
Result: 1.86
